test system: Escherichia coli OTEM; experiment: In vitro anti-bacterial activity test (MIC, two-fold dilution method) against the standard strains; type: cell-based; settings: Table 1 strain 10: Escherichia coli OTEM
readout_label: MIC (µg/mL)
Give bare numbers, in µg/mL.

[[record]]
molecule = "Nc1c(F)c(N2CCC3(CC3N)C2)c(F)c2c1c(=O)c(C(=O)O)cn2C1CC1 (stereo not drawn) [Example 7]"
readout_label = "MIC"
endpoint_result = 0.025

[[record]]
molecule = "NC1CC12CCN(c1c(F)cc3c(=O)c(C(=O)O)cn(C4CC4)c3c1Cl)C2 (stereo not drawn) [Example 3]"
readout_label = "MIC"
endpoint_result = 0.007


Continue with the next molecule.
GET /value?item= C[C@H]1COc2c(N3CCC4(CC4C(=O)O)C3)c(F)cc3c(=O)c(C(=O)O)cn1c23 (stereo partly drawn) [Example 14] &field=MIC returns 0.391
